These measurements were taken from patent US20240293344A1.

assay: Pharmacokinetics in male beagle dogs (plasma); assay type: in vivo, dog; details: male, beagle, dog, plasma, po; delivery via a colonic capsule; read-out: oral bioavailability
endpoint-name: bioavailability

Ask | Recorded bioavailability for CCCCCC#CC(=O)NO [2-octynoHA, N-hydroxyoct-2-ynamide] , please?
Reply | ~0%

* * *

test: Pharmacokinetics in male beagle dogs (plasma); type: in vivo, dog; settings: male, beagle, dog, plasma, po, 300 mg; uncoated gelatin capsule; dose-adjusted AUC0-t of PK 1 and PK 2; read-out: bioavailability after oral administration
endpoint-name: bioavailability

Ask | What measured bioavailability goes with CCCCCC#CC(=O)NO [2-octynoHA, N-hydroxyoct-2-ynamide] ?
Reply | ~4.5%

* * *

system: bacterial urease; experiment: Rat caecum content assay (urease inhibitory activity, ammonia production from urea); assay type: cell-based, bacteria of rat caecum content; details: read-out: IC50, bacterial urease inhibitory activity; rat caecum content with urea, 30 min at 37° C., pH 6.8
endpoint-name: IC50

Ask | IC50 lookup needed for CCCCCC#CC(=O)NO [2-octynoHA, N-hydroxyoct-2-ynamide] , thanks.
Reply | ~38 µM
